TARGET OF ASSAY: CaV2.2 (Homo sapiens)
Construct: expressed in transfected cells; host or cells: HEK293
Sequence (Q00975 whole entry): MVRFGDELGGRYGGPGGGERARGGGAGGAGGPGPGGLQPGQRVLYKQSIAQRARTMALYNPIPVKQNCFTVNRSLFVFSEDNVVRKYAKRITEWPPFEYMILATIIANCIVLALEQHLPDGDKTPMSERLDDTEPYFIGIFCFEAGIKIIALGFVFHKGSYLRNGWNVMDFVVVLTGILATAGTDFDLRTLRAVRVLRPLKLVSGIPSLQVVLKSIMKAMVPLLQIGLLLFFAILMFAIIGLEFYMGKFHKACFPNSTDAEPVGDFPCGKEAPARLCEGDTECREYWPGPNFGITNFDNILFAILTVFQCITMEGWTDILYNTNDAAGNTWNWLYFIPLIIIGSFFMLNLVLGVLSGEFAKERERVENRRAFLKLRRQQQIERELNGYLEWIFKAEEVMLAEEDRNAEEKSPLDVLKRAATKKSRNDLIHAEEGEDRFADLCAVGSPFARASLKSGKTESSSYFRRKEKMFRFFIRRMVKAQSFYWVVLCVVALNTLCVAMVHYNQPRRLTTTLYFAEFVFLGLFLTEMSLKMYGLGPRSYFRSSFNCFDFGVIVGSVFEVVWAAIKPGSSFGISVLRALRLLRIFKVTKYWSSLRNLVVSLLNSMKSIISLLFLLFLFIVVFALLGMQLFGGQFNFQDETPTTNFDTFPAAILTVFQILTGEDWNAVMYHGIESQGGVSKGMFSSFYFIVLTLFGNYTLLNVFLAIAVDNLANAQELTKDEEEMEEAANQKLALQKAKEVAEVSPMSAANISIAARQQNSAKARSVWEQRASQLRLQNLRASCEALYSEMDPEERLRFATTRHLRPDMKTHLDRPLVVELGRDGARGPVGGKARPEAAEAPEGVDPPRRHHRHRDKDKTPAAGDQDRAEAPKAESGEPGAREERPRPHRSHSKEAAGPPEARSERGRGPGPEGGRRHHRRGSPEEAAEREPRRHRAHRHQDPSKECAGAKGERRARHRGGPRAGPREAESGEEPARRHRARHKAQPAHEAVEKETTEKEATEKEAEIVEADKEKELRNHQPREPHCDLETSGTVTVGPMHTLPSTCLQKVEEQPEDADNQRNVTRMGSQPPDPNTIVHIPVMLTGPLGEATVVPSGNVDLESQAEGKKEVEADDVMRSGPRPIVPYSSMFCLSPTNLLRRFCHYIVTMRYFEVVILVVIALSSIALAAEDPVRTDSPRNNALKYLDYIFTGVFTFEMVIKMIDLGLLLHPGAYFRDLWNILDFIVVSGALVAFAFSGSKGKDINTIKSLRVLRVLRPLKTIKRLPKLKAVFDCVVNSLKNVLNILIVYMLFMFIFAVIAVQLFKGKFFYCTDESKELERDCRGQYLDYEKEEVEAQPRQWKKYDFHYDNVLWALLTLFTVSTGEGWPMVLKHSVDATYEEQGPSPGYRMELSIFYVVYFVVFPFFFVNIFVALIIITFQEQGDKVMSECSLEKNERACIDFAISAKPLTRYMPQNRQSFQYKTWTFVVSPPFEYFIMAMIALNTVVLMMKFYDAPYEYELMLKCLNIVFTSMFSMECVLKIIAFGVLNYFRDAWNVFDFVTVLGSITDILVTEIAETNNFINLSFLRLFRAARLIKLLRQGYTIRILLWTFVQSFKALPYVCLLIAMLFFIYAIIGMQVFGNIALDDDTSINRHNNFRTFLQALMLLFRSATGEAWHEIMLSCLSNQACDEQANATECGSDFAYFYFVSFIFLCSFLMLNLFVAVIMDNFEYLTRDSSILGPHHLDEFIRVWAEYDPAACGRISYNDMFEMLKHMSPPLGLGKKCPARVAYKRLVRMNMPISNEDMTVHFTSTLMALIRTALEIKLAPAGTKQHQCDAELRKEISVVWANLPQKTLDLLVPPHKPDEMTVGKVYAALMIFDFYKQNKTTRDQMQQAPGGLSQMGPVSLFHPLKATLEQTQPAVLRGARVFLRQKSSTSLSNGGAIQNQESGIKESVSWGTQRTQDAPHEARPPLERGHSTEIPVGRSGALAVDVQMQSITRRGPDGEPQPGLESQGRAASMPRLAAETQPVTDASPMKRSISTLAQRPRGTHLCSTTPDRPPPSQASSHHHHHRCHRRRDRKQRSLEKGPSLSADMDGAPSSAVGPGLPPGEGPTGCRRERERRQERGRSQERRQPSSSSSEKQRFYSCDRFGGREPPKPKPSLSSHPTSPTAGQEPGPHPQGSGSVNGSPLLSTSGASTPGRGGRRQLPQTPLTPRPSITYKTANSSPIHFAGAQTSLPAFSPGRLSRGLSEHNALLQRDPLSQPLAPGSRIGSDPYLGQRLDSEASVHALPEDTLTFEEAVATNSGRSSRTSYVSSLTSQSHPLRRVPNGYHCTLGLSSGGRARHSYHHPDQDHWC
Sequence (P54284 whole entry partner): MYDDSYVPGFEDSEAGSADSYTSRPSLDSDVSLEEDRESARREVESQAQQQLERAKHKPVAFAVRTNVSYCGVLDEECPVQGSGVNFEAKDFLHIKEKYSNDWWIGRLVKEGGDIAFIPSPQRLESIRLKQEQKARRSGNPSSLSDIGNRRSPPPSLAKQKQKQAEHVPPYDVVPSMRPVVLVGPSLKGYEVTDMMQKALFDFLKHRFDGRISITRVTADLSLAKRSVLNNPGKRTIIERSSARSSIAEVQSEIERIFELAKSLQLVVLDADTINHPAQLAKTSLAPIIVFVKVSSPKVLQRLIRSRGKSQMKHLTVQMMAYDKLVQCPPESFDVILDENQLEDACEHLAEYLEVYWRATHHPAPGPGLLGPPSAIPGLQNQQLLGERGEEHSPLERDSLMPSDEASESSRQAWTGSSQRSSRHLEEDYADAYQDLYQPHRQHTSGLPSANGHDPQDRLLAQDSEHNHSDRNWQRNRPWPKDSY
Sequence (P54289 25-946 partner limits assumed): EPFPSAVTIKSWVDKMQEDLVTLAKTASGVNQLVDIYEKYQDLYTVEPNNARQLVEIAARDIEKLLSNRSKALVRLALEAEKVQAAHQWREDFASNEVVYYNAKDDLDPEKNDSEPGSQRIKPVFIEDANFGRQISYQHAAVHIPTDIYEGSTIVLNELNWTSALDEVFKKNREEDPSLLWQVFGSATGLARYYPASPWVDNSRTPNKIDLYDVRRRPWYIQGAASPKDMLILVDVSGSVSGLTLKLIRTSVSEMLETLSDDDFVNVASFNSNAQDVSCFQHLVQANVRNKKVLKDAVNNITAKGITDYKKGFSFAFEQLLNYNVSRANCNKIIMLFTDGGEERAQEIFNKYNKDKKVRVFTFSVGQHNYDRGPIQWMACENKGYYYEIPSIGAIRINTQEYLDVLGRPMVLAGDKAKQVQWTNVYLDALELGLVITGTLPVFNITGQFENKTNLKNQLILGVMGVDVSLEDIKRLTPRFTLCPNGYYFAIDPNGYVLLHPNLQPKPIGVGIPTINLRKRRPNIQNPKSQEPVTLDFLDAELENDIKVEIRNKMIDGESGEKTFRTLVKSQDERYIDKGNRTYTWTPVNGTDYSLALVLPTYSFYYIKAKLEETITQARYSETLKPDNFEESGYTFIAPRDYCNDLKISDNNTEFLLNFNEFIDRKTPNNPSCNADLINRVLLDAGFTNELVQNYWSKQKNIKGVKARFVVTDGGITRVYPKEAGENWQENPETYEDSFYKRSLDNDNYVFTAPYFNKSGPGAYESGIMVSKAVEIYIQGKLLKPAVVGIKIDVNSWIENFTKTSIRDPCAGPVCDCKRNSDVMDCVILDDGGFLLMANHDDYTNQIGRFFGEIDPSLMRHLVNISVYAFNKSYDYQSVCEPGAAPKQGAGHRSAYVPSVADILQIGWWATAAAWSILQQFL
Sequence (P54289 947-1103 partner limits assumed): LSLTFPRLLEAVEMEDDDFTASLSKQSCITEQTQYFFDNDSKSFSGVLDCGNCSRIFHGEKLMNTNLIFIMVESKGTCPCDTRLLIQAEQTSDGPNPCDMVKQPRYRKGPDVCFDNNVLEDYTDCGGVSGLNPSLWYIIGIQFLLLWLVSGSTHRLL
METHOD DESCRIPTION: VIPR optical membrane potential assay with electrical stimulation
Assay type: cell-based
CONDITION LABEL: Table 3, biological assay data; read-out: IC50
pIC50: −log10 of the molar value.
QUANTITY: pIC50

CCOC(=O)N1CCN(C(=O)c2cc3cc(S(=O)(=O)N4CCC(C)CC4)ccc3[nH]2)CC1; > 5.30
Cc1c(C(=O)N2CCCC(C)C2)oc2ccc(S(=O)(=O)N3CCOCC3)cc12 (stereo not shown); > 4.70
CCNC(=O)c1cc2cc(S(=O)(=O)N3CCCCCC3)ccc2o1; 4.70 to 5.30
CCOC(=O)C1CCN(C(=O)c2oc3ccc(S(=O)(=O)N4CCC(C)CC4)cc3c2C)CC1; > 5.30
Cc1c(C(=O)N2CCCCCC2)oc2ccc(S(=O)(=O)N3CCC(C)CC3)cc12; 4.70 to 5.30
CC1CC(C)CN(S(=O)(=O)c2ccc3[nH]c(C(N)=O)cc3c2)C1 (stereo not shown); 4.70 to 5.30
CC1CCN(S(=O)(=O)c2ccc3cc(C(=O)NC4CC4)[nH]c3c2)CC1; 4.70 to 5.30
